Taken from patent EP4361176A1.

Biological target: T1, human CTLA4 (soluble analyte of the Biacore assays of Reference Example 3-3) (human, UniProt P16410 36-161)
T1 construct: also called hCTLA4
T1 sequence: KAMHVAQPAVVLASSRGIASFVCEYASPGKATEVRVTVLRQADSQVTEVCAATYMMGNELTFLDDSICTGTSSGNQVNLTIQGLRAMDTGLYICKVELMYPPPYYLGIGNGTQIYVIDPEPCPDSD
Experiment: SPR, 1000 nM CTLA4, per unit antibody, ATP 10 uM
Reported Binding to Human CTLA4 values follow for various binders
// print number alone

Recorded results for 4 binders are shown here.
04H1208-G1m/04L1086-lam1 (antibody, human IgG1, lambda, V domains shown) VH: EVQLVESGGGLVKPGGSLRLSCAASGFTFSSKTMNWVRQAPGKGLEWVSSISTRSGYIYYARSVKGRFTISRDNAKNSLYLQMNSLRAEDTAVYYCARYGKREDMLWVFDYWGQGTLVTVSS VL: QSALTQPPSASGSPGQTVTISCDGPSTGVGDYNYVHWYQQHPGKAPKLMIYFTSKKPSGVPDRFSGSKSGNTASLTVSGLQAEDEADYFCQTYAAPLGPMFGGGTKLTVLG = 0.108
04H1207-G1m/04L1086-lam1 (antibody, human IgG1, lambda, V domains shown) VH: EVQLVESGGGLVKPGGSLRLSCAASGFTFSSKTMNWVRQAPGKGLEWVSSISTRSGYIYYAESVKGRFTISRDNAKNSLYLQMNSLRAEDTAVYYCARYGKREDMLWVFDYWGQGTLVTVSS VL: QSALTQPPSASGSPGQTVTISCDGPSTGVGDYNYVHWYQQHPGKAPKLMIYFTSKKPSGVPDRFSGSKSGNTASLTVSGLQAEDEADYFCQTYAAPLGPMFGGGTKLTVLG = 0.137
04H1077-G1m/04L1066-lam1 (antibody, human IgG1, lambda, V domains shown) VH: EVQLVESGGDLVKPGGGLRLSCAASGFTFSSRTMNWVRQAPGKGLEWVSSISTRSGYIYYAESVKGRFTISRDNAKNSLYLQMNSLRAEDTAVYYCARYGKREDMLWVFDYWGQGTLVTVSS VL: QSALTQPPSASGSPGQTVTISCDGPSTDVGDYNWVHWYQQHPGKAPKLMIYFTSKKPSGVPDRFSGSKSGNTASLTVSGLQAEDEADYFCSTYAAPLGPMFGGGTKLTVLG = 0.142
04H1077-G1m/04L1067-lam1 (antibody, human IgG1, lambda, V domains shown) VH: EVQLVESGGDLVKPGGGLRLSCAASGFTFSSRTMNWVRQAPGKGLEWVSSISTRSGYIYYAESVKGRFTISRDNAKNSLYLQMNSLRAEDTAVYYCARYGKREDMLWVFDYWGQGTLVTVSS VL: QSALTQPPSASGSPGQTVTISCDGPSTGVGDYNYVHWYQQHPGKAPKLMIYFTSKKPSGVPDRFSGSKSGNTASLTVSGLQAEDEADYFCSTYAAPLGPMFGGGTKLTVLG = 0.131

Next binder, Binding to Human CTLA4 to be filled in.
Task item: Would you mind telling me what Binding to Human CTLA4 value was observed for 04H1077-G1m/04L1041-lam1 (antibody, human IgG1, lambda, V domains shown) VH: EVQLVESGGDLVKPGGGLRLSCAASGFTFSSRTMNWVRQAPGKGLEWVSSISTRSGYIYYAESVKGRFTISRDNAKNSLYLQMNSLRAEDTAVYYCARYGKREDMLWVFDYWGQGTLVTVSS VL: QSALTQPPSASGSPGQTVTISCDGPSTDVGDYNYVHWYQQHPGKAPKLMIYFTSKKPSGVPDRFSGSKSGNTASLTVSGLQAEDEADYFCSTYAAPLGPMFGGGTKLTVLG ?
Reply: 0.094
